Target: T1, human BDCA2 (human, UniProt Q8WTT0 1-213)
T1 sequence (looked up): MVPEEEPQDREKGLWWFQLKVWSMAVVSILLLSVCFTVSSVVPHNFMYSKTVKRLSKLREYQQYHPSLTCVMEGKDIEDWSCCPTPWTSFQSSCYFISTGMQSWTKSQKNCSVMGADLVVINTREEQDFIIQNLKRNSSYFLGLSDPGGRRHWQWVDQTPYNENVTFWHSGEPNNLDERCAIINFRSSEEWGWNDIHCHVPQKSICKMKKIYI
Assay: cell-based or functional assay
readout-type: IC50 for inhibiting cytokine IFNα release, CpG-A stimulated human PBMC (pM)
Report only the number, with the unit pM understood.

## Input Please give the measured IC50 for inhibiting cytokine IFNα release, CpG-A stimulated human PBMC for this binder: mAb021 (antibody, V domains shown, Mouse hybridoma antibody) VH: DVQLQESGPGLVKPSQSLSLTCSVTGYSITSAYYWNWIRQFPGNKLECMGYITYDGNNYYSPSLKNRISITRDTSKNQFFLNLNSVTTEDTATYFCARGGDYDDGGFAFWGQGTLVTVSA VL: DIQMTQSPASLSASVGETVTITCRASGNIHNYLAWYHQKQGKSPQLLVYNAKSLVDGVPSRFSGSGSGTQYSLRINSLQPEDFGSYYCQHFWIVPYTFGGGTKLEII
## Output 4.05

## Input Field request: IC50 for inhibiting cytokine IFNα release, CpG-A stimulated human PBMC | item: mAb022 (antibody, V domains shown, Mouse hybridoma antibody) VH: DVQLQESGPGLVKPSQSLSLTCSVTGYSITSGYYWNWIRQFPGNKLEWMGYISFDGTYNYNPSLKDRFSITRDTSKNQFFLKLNSVTTEDTATYYCARGVDYPKAMDWWGQGTSVTVSS VL: DIVLTQSPASLAVSLGQRATISCRASESVSMHVTHLIHWYQQKPGQPPKLLIYVASNLESGVPARFSGSGSETDFTLNIHPVEEEDAATYFCQQSFEDPWTFGGGTKLEIK
## Output 6.23
